Consider the following molecules and their measured Plant response rating: Bluegrass readings.
# Test system: bluegrass
# assay-text: Test D postemergence
# Format: in vivo, Poa annua
# condition-parameters: 125 g ai/ha, scale 0 to 100
Response field accepts a number only; no unit should be typed.

Assign Plant response rating: Bluegrass to the following record: CCOc1nc(-c2ccccc2)nn1Cc1ccnc(C(F)(F)F)c1
70

Assign Plant response rating: Bluegrass to the following record: FC(F)(F)COc1nc(-c2ccccc2)nn1Cc1ccnc(C(F)(F)F)c1
70

Assign Plant response rating: Bluegrass to the following record: CCOc1nc(-c2ccc(F)cc2)nn1Cc1ccnc(C(F)(F)F)c1
75

Assign Plant response rating: Bluegrass to the following record: CCc1nc(-c2ccc(C(F)(F)F)cc2)nn1Cc1ccnc(C(F)(F)F)c1
35

Assign Plant response rating: Bluegrass to the following record: COc1nc(-c2ccc(Cl)cc2)nn1Cc1ccnc(C(F)(F)F)c1
40

----------
# System: waterhemp
# assay-text: Test C postemergence
# Format: in vivo, Amaranthus rudis
# condition-parameters: 31 g ai/ha
recorded-endpoint: Plant response rating (scale of 0 to 100 where 0 is no effect and 100 is complete control)
Response field accepts a number only; no unit should be typed.

- COc1nc(-c2ccccc2)nn1Cc1ccnc(C(F)(F)F)c1 [Compound 32]: 85
- Fc1ccc(-c2nc(OCC(F)(F)F)n(Cc3ccnc(C(F)(F)F)c3)n2)cc1 [Compound 30]: 95
- CCCOc1nc(-c2ccccc2)nn1Cc1ccnc(C(F)(F)F)c1 [Compound 33]: 80

Next, consider the following molecule.
Assign Plant response rating (scale of 0 to 100 where 0 is no effect and 100 is complete control) to the following record: COc1nc(-c2ccc(Cl)cc2)nn1Cc1ccnc(C(F)(F)F)c1 [Compound 28]
98

----------
# Test system: waterhemp
# assay-text: Test C postemergence
# Type: in vivo, Amaranthus rudis
# condition-parameters: 125 g ai/ha
recorded-endpoint: Plant response rating (scale of 0 to 100 where 0 is no effect and 100 is complete control)
Response field accepts a number only; no unit should be typed.

Here's what some known entries look like.
* CCOc1nc(-c2ccc(Cl)cc2)nn1Cc1ccnc(C(F)(F)F)c1 [Compound 26] | 98
* COc1nc(-c2ccc(F)cc2)nn1Cc1ccnc(C(F)(F)F)c1 [Compound 9] | 85
* COc1nc(-c2ccc(Cl)cc2)nn1Cc1ccnc(C(F)(F)F)c1 [Compound 28] | 95

Assign Plant response rating (scale of 0 to 100 where 0 is no effect and 100 is complete control) to the following record: FC(F)(F)COc1nc(-c2ccccc2)nn1Cc1ccnc(C(F)(F)F)c1 [Compound 24]
98

Assign Plant response rating (scale of 0 to 100 where 0 is no effect and 100 is complete control) to the following record: CCOc1nc(-c2ccc(F)cc2)nn1Cc1ccnc(C(F)(F)F)c1 [Compound 8]
95

----------
# Test system: nutsedge, yellow
# assay-text: Test C preemergence
# Format: in vivo, Cyperus esculentus
# condition-parameters: Nutsedge, Yellow, preemergence, 250 g ai/ha
# Description: […]
Labelling field: enter T if recorded Plant response rating (scale of 0 to 100 where 0 is no effect and 100 is complete control) is less than 60. Enter F if it equals or exceeds that cut-off.

Previously resolved entries follow.
• CCOc1nc(-c2ccc(F)cc2)nn1Cc1ccnc(C(F)(F)F)c1 [Compound 8] = F
• CCCc1nc(-c2ccc(F)cc2)nn1Cc1ccnc(C(F)(F)F)c1 [Compound 6] = T

In plain terms, does FC(F)(F)COc1nc(-c2ccc(Cl)cc2)nn1Cc1ccnc(C(F)(F)F)c1 [Compound 31] come in under 60 for Plant response rating (scale of 0 to 100 where 0 is no effect and 100 is complete control)?
T

In plain terms, does COc1nc(-c2ccccc2)nn1Cc1ccnc(C(F)(F)F)c1 [Compound 32] come in under 60 for Plant response rating (scale of 0 to 100 where 0 is no effect and 100 is complete control)?
T

In plain terms, does CCc1nc(-c2ccc(C(F)(F)F)cc2)nn1Cc1ccnc(C(F)(F)F)c1 [Compound 1] come in under 60 for Plant response rating (scale of 0 to 100 where 0 is no effect and 100 is complete control)?
T
